The measurements presented in this section are drawn from ChEMBL document CHEMBL4828724.

# Lookup of reported remaining at 1 h, 1 µM keyed by entry
Experiment: Metabolic stability in monkey liver microsomes assessed as parent compound remaining at 1 uM in the presence of NADPH measured after 60 mins by LC-MS/MS analysis
Type: ADME, Macaca mulatta, Microsome
Details: rhesus monkey, liver microsomes, read-out: Stability
endpoint_label: remaining at 1 h, 1 µM (%)

INSERT INTO assay_data (compound, endpoint_label, experimental_result) VALUES
  ('COc1cc2c(cc1OCC(F)(F)F)CCN1CC(CC(C)C)C(O)CC21 (stereo not given)', 'remaining at 1 h, 1 µM', 48.1),
  ('COc1cc2c(cc1OCC1CC1)CCN1CC(CC(C)C)C(O)CC21 (stereo not given)', 'remaining at 1 h, 1 µM', 17.6),
  ('CCCOc1cc2c(cc1OCC)C1CC(O)C(CC(C)C)CN1CC2 (stereo not given)', 'remaining at 1 h, 1 µM', 6.6),
  ('COc1cc2c(cc1OC)C1CC(=O)C(CC(C)C)CN1CC2 (stereo not given)', 'remaining at 1 h, 1 µM', 10.5),
  ('COc1cc2c(cc1OC)[C@H]1C[C@@H](O)[C@H](CC(C)C)CN1CC2 [DIHYDROTETRABENAZINE]', 'remaining at 1 h, 1 µM', 29.9);
